TARGET_ENTITY: Peroxisomal acyl-coenzyme A oxidase 3 (Homo sapiens, UniProt O15254); also: in the data inactive means no Kd found up to 30 µM
Sequence (O15254 whole entry): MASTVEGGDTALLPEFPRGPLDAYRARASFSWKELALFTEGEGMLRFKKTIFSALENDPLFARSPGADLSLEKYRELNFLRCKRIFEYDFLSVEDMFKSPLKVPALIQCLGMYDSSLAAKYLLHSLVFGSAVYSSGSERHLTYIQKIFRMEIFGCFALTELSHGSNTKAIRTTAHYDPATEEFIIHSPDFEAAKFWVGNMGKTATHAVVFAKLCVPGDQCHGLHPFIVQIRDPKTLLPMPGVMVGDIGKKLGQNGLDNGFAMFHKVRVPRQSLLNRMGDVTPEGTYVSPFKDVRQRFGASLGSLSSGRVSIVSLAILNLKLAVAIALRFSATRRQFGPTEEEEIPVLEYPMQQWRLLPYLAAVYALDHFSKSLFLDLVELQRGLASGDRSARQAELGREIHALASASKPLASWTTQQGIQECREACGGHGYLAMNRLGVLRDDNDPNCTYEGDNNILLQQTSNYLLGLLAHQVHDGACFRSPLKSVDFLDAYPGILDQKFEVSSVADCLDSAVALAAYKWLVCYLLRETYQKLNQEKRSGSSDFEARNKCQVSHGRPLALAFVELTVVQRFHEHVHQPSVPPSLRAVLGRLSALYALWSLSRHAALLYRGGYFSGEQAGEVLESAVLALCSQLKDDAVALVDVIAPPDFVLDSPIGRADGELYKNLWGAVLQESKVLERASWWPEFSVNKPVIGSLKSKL
Calls of active or inactive are those of the source.
// allowed return values: YES = active, NO = inactive

QUERY: Query: recorded result category for C#Cc1cccc(Nc2ncnc3cc4c(cc23)OCCOCCOCCO4)c1 in this test
RESULT: NO

QUERY: Query: recorded result category for C[C@@H]1COC(Nc2ccc3ncnc(Nc4ccc(OCc5nccs5)c(Cl)c4)c3c2)=N1 in this test
RESULT: NO

QUERY: Query: recorded result category for Cc1cc(-c2cc(OC(=O)c3ccccc3)ccc2Cl)cc2nnc(Nc3ccc(OCCN4CCCC4)cc3)nc12 in this test
RESULT: NO

Others:
QUERY: Query: recorded result category for Cc1cc(C(=O)Nc2cc(Oc3ccc4nc(NC(=O)C5CC5)cn4n3)ccc2C)n(C)n1 in this test
RESULT: NO

QUERY: Query: recorded result category for NC(=O)c1ccc(N(C(N)=O)c2c(F)cccc2F)nc1-c1ccc(F)cc1F in this test
RESULT: NO

QUERY: Query: recorded result category for COc1cc2c(N3CCN(C(=O)Nc4ccc(OC(C)C)cc4)CC3)ncnc2cc1OCCCN1CCCCC1 in this test
RESULT: NO

QUERY: Query: recorded result category for O=C(Nc1ccc(OC(F)(F)F)cc1)c1sccc1NCc1ccnc2ccccc12 in this test
RESULT: NO
